Tested on: HNSC
runDescription: growth inhibition (% activity, log2 RLU normalised to DMSO / staurosporine); higher = more growth inhibition
particulars: 33 µM
readoutType: growth inhibition (%)

1. CN(C)[C@@H]1C(=O)C(C(N)=O)=C(O)[C@@]2(O)C(=O)C3=C(O)c4c(O)ccc(Cl)c4[C@@](C)(O)[C@H]3C[C@@H]12; 2.92
2. O=P1(N(CCCl)CCCl)NCCCO1 (stereo not drawn); -1.67
3. NCCc1c[nH]c2ccc(O)cc12; -4.26

====

Entries and their measured growth inhibition follow.
System: SUDIPGIV (diffuse intrinsic pontine glioma line)
runDescription: growth inhibition (% activity, log2 RLU normalised to DMSO / staurosporine); higher = more growth inhibition
particulars: 33 µM
readoutType: growth inhibition (%)

1. CCC1(C)CC(=O)NC(=O)C1; -2.82
2. Cc1cc(C(C#N)c2ccc(Cl)cc2)c(Cl)cc1NC(=O)c1cc(I)cc(I)c1O (stereo not given); -0.00583
3. CN(C)C(=O)Oc1ccc[n+](C)c1; 0.973
4. C=C(C)[C@@H]1[C@H]2OC(=O)[C@@H]1[C@]1(O)C[C@H]3O[C@]34C(=O)O[C@H]2[C@]14C; -0.711
5. CNCC(=O)c1ccc(O)c(O)c1; 0.154
6. CNC1CC(N)C(O)C(OC2OC(CO)C(O)C3OC4(OC(C(N)CO)C(O)C(O)C4O)OC23)C1O (stereo not given); 3.64
7. CN1C2CC(O)CC1C1OC12 (stereo not given); -1.37
8. C[N+]1(C)CCCC(OC(=O)C(O)(c2ccccc2)c2ccccc2)C1 (stereo not given); -0.578
9. C[N+](C)(C)CCCCCCCCCC[N+](C)(C)C; 0.278
10. CCCCCCCCCCCCCCCC[n+]1ccccc1; 55.8
11. N.N.[Cl][Pt][Cl]; -3
12. CN1C(=O)CCS(=O)(=O)C1c1ccc(Cl)cc1 (stereo not given); 0.226
13. CC(C)NCC(O)c1ccccc1Cl (stereo not given); 0.901
14. C/C=C(\C)C(=O)N[C@@H](c1ccccc1)[C@@H](O)C(=O)O[C@H]1C[C@@]2(O)[C@@H](OC(=O)c3ccccc3)[C@@H]3[C@]4(OC(C)=O)CO[C@@H]4C[C@H](O)[C@@]3(C)C(=O)[C@H](OC(C)=O)C(=C1C)C2(C)C; 37
15. CC(NC(C)(C)C)C(=O)c1cccc(Cl)c1 (stereo not given); 0.0304
16. NCCc1c[nH]c2ccc(O)cc12; 0.704
17. C[C@]12CCC(=O)C=C1C=C[C@@H]1[C@@H]2CC[C@@]2(C)[C@H]1CC[C@@]2(O)CCC(=O)O; -0.186
18. C[C@@H]1CC[C@H]2[C@@H](C)C(=O)O[C@@H]3O[C@@]4(C)CC[C@@H]1[C@]32OO4; 12.8
19. COc1ccc(OC)c(C(O)C(C)N)c1 (stereo not given); 0.0544
20. CC[C@@]1(O)C(=O)OCc2c1cc1n(c2=O)Cc2cc3ccccc3nc2-1; 46.6

====

Test system: SUDIPGVI (diffuse intrinsic pontine glioma line)
runDescription: growth inhibition (% activity, log2 RLU normalised to DMSO / staurosporine); higher = more growth inhibition
particulars: 33 µM
Entries and their measured growth inhibition follow.
readoutType: growth inhibition (%)

1) CC[C@@]1(O)C(=O)OCc2c1cc1n(c2=O)Cc2cc3ccccc3nc2-1; 2.42
2) COc1ccc(C(=O)N2CCCC2=O)cc1; -5.15
3) COc1ccc(OC)c(C(O)C(C)N)c1 (centres undefined); 3.12
4) CCCN1C[C@H](CSC)C[C@@H]2c3cccc4[nH]cc(c34)C[C@H]21; 0.348

====

Entries and their measured growth inhibition follow.
Test system: DIPGX7 (H3.3 K27M diffuse intrinsic pontine glioma line)
runDescription: growth inhibition (% activity, log2 RLU normalised to DMSO / staurosporine); higher = more growth inhibition
particulars: 33 µM
readoutType: growth inhibition (%)

1. Cc1cc(C(C#N)c2ccc(Cl)cc2)c(Cl)cc1NC(=O)c1cc(I)cc(I)c1O (stereo not drawn); -0.384
2. CC(C)c1c(CN(C)C(C)Cc2ccccc2)n(C)n(-c2ccccc2)c1=O (stereo not drawn); 2.59
3. CN1C(=O)COc2c(C(=O)NC3CN4CCC3CC4)cc(Cl)cc21 (stereo not drawn); 1.36
4. CN1C2CC(O)CC1C1OC12 (stereo not drawn); -1.33
5. C[N+]1(C)[C@@H]2C[C@@H](OC(=O)[C@H](CO)c3ccccc3)C[C@H]1[C@@H]1O[C@@H]12; 0.707
6. CC(NC(C)(C)C)C(=O)c1cccc(Cl)c1 (stereo not drawn); -1.27
7. CC(=O)OC1CN2CCC1CC2 (stereo not drawn); 0.391
8. CCC1=C[C@H]2CN3CCc4c([nH]c5ccccc45)[C@](C(=O)OC)(C2)[C@H]13; -1.78

====

Test system: HGGX6 (H3.3 G34R paediatric high-grade glioma line)
runDescription: growth inhibition (% activity, log2 RLU normalised to DMSO / staurosporine); higher = more growth inhibition
particulars: 33 µM
readoutType: growth inhibition (%)

1. CC(=O)OC1CN2CCC1CC2 (stereo not given); -1.32
2. NCC(O)c1ccc(O)cc1 (stereo not given); -2.95
3. CN1C(=O)CCS(=O)(=O)C1c1ccc(Cl)cc1 (stereo not given); 1.29
4. c1ccc2c(c1)sc1ccccc12; -1.23
5. C/C=C(\C)C(=O)N[C@@H](c1ccccc1)[C@@H](O)C(=O)O[C@H]1C[C@@]2(O)[C@@H](OC(=O)c3ccccc3)[C@@H]3[C@]4(OC(C)=O)CO[C@@H]4C[C@H](O)[C@@]3(C)C(=O)[C@H](OC(C)=O)C(=C1C)C2(C)C; 19.9
